- Tested on: DU-145
- ASSAY_OVERVIEW: NCI tumour cell line growth inhibition, 48 h
Calls of active or inactive are those of the source. Rule as the data show it: active = GI50 up to about 1.1 µM and inactive = higher.
Exercise: for every item that follows, state its recorded GI50.

Example cases with answers are listed next.
COMPOUND	GI50
Cc1c(CN2CCOCC2)c(CN2CCOCC2)c(C)n1-c1ccc(Cl)cn1	> 100 µM (inactive)
CC1(/C=C/CCSc2ccccc2)CC(=O)C2CC1C2(C)C (stereo unspecified)	44.3 µM (inactive)
COC(=O)c1cc(NC(=O)Cn2c3ccccc3c3ccccc32)cn1C	> 100 µM (inactive)

Please supply GI50 for each of the following items, keeping them in order.
1. COC(=O)Nc1nc2cc(S(=O)(=O)Nc3ccccn3)ccc2[nH]1
2. C=C1C(=O)O[C@@H]2/C=C(\C)CC/C=C(/COC(C)=O)C[C@@H](OC(C)=O)[C@@H]12
3. Cn1c(=O)c2nc(SCCN3CCOCC3)[nH]c2n(C)c1=S
4. CCOC(=O)C1C(=O)CC1(C)C (stereo unspecified)
5. O=C(O)CN1CCN2CCOCCN(CC1)CCN(CC(=O)O)CC2
6. CC(C)CCNc1ncnc2[nH]ncc12

Response:
1. 71.1 µM (inactive)
2. 6.79 µM (inactive)
3. > 100 µM (inactive)
4. > 10 µM (inactive)
5. > 100 µM (inactive)
6. > 100 µM (inactive)

Please supply GI50 for each of the following items, keeping them in order.
1. Cc1n[nH]c(=O)n1/N=C/c1ccncc1
2. O=S(=O)(N1CCCCN(S(=O)(=O)C(F)(F)F)CCCN(S(=O)(=O)C(F)(F)F)CCCCN(S(=O)(=O)C(F)(F)F)CCCN(S(=O)(=O)C(F)(F)F)CCCCN(S(=O)(=O)C(F)(F)F)CCCN(S(=O)(=O)C(F)(F)F)CCCCN(S(=O)(=O)C(F)(F)F)CCC1)C(F)(F)F

Response:
> 100 µM (inactive)
> 31.6 µM (inactive)
